# Test system: K86415-001-R-J1-PDC complex spheroids, viability
# assay-protocol: Anticancer human tumor K86415-001-R-J1-PDC patient-derived lung adenocarcinoma cell line growth inhibition [RAS]
# assay-conditions: second compound 0.000949 µM; first compound 0.1 µM; stronger effect = lower value
Note to self: viability, T/C under 20% means T, ties and anything higher get F.

>  <molecule>
C=CC(=O)Nc1cc(Nc2nccc(-c3cn(C)c4ccccc34)n2)c(OC)cc1N(C)CCN(C)C + CCn1c(-c2cc(N3CCN(C)CC3)cnc2C(C)OC)c2c3cc(ccc31)-c1csc(n1)CC(NC(=O)C1CC1C)C(=O)N1CCCC(N1)C(=O)OCC(C)(C)C2

>  <class-assignment>
F

$$$$
>  <molecule>
CCN1CCN(Cc2ccc(Nc3ncc(F)c(-c4cc(F)c5nc(C)n(C(C)C)c5c4)n3)nc2)CC1 + CCn1c(-c2cc(N3CCN(C)CC3)cnc2C(C)OC)c2c3cc(ccc31)-c1csc(n1)CC(NC(=O)C1CC1C)C(=O)N1CCCC(N1)C(=O)OCC(C)(C)C2

>  <class-assignment>
F

$$$$
>  <molecule>
CC(C)n1nc(-c2ccc3oc(N)nc3c2)c2c(N)ncnc21 + CCn1c(-c2cccnc2C(C)OC)c2c3cc(ccc31)N1CCOC(CC(NC(=O)C(C(C)C)N(C)C(=O)C3(F)CCN(C(=O)C#CC(C)(C)N(C)C)CC3)C(=O)N3CCCC(N3)C(=O)OCC(C)(C)C2)C1

>  <class-assignment>
T

$$$$
>  <molecule>
C=CC(=O)N1CCN(c2nc(OCC3CCCN3C)nc3c(F)c(-c4nc(N)cc(C)c4C(F)(F)F)c(Cl)cc23)C(C)C1 (stereo not given) + CCn1c(-c2cccnc2C(C)OC)c2c3cc(ccc31)N1CCOC(CC(NC(=O)C(C(C)C)N(C)C(=O)C3(F)CCN(C(=O)C#CC(C)(C)N(C)C)CC3)C(=O)N3CCCC(N3)C(=O)OCC(C)(C)C2)C1

>  <class-assignment>
T

$$$$
>  <molecule>
CC(Nc1ccc2c(c1)OCCn1cc(N3C(=O)OCC3C(F)F)nc1-2)C(N)=O (stereo not given) + CCn1c(-c2cccnc2C(C)OC)c2c3cc(ccc31)N1CCOC(CC(NC(=O)C(C(C)C)N(C)C(=O)C3(F)CCN(C(=O)C#CC(C)(C)N(C)C)CC3)C(=O)N3CCCC(N3)C(=O)OCC(C)(C)C2)C1

>  <class-assignment>
F

$$$$

Consider the molecule CC(Nc1ccc2c(c1)OCCn1cc(N3C(=O)OCC3C(F)F)nc1-2)C(N)=O (stereo not given) + CCn1c(-c2cc(N3CCN(C)CC3)cnc2C(C)OC)c2c3cc(ccc31)-c1csc(n1)CC(NC(=O)C1CC1C)C(=O)N1CCCC(N1)C(=O)OCC(C)(C)C2 . Is its viability, T/C strictly less than 20%? F

Consider the molecule O=C(c1ccc(F)c(F)c1Nc1ccc(I)cc1F)N1CC(O)([C@@H]2CCCCN2)C1 + CCn1c(-c2cccnc2C(C)OC)c2c3cc(ccc31)N1CCOC(CC(NC(=O)C(C(C)C)N(C)C(=O)C3(F)CCN(C(=O)C#CC(C)(C)N(C)C)CC3)C(=O)N3CCCC(N3)C(=O)OCC(C)(C)C2)C1 . Is its viability, T/C strictly less than 20%? T

Consider the molecule CC1(O)CCCC1n1c(=O)c(C(F)F)cc2cnc(NC3CCN(S(C)(=O)=O)CC3)nc21 (stereo not given) + CCn1c(-c2cc(N3CCN(C)CC3)cnc2C(C)OC)c2c3cc(ccc31)-c1csc(n1)CC(NC(=O)C1CC1C)C(=O)N1CCCC(N1)C(=O)OCC(C)(C)C2 . Is its viability, T/C strictly less than 20%? F

Consider the molecule CC(C)NCC(C(=O)N1CCN(c2ncnc3c2C(C)CC3O)CC1)c1ccc(Cl)cc1 (stereo not given) + CCn1c(-c2cccnc2C(C)OC)c2c3cc(ccc31)N1CCOC(CC(NC(=O)C(C(C)C)N(C)C(=O)C3(F)CCN(C(=O)C#CC(C)(C)N(C)C)CC3)C(=O)N3CCCC(N3)C(=O)OCC(C)(C)C2)C1 . Is its viability, T/C strictly less than 20%? F

---

# Tested on: K86415-001-R-J1-PDC complex spheroids, viability
# assay-protocol: Anticancer human tumor K86415-001-R-J1-PDC cell line growth inhibition [RAS]; active means viability on the fitted dose curve at most 10% of control; inactive means the rest;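 further: spheroids exposed to agents for seven days before readout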
# assay-conditions: second compound 0.01 µM; first compound 3.16 µM
Allowed answers: active, inactive

Consider the following illustrative entries.
>  <compound>
CC(Nc1ccc2c(c1)OCCn1cc(N3C(=O)OCC3C(F)F)nc1-2)C(N)=O (centres undefined) + C=CC(=O)N1CCN(c2nc(OCC3CCCN3C)nc3c(F)c(-c4nc(N)cc(C)c4C(F)(F)F)c(Cl)cc23)C(C)C1

>  <class-assignment>
active

$$$$
>  <compound>
NC1c2ccccc2OC12CCN(c1cnc3c(N4CCCc5ncccc54)n[nH]c3n1)CC2 (centres undefined) + C=CC(=O)N1CCN(c2nc(OCC3CCCN3C)nc3c(F)c(-c4nc(N)cc(C)c4C(F)(F)F)c(Cl)cc23)C(C)C1

>  <class-assignment>
active

$$$$

Which outcome did this test record for the compound CC1(O)CCCC1n1c(=O)c(C(F)F)cc2cnc(NC3CCN(S(C)(=O)=O)CC3)nc21 (centres undefined) + C=CC(=O)N1CCN(c2nc(OCC3CCCN3C)nc3c(F)c(-c4nc(N)cc(C)c4C(F)(F)F)c(Cl)cc23)C(C)C1 ? inactive

Which outcome did this test record for the compound CC(=O)OC12COC1CC(O)C1(C)C(=O)C(O)C3=C(C)C(OC(=O)C(O)C(NC(=O)OC(C)(C)C)c4ccccc4)CC(O)(C(OC(=O)c4ccccc4)C21)C3(C)C (centres undefined) + C=CC(=O)N1CCN(c2nc(OCC3CCCN3C)nc3c(F)c(-c4nc(N)cc(C)c4C(F)(F)F)c(Cl)cc23)C(C)C1 ? inactive

---

# System: K86415-001-R-J1-PDC complex spheroids, viability
# assay-protocol: Anticancer human tumor K86415-001-R-J1-PDC cell line growth inhibition [RAS];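 further: spheroids exposed to agents for seven days before readout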
# assay-conditions: second compound 0.0949 µM; first compound 0.316 µM; stronger effect = lower value
# Description: RAS pathway inhibitors in Combinations in Complex Spheroids A high-throughput screen of multi-cell type tumor spheroids was designed to identify active combinations of RAS pathway inhibitors and targeted small molecules. Complex spheroids include a stromal component modeled by human endothelial cells (HUVEC) and fibroblasts modeled by human mesenchymal stem cells (MSCs). […] Compounds. […] If the clinical Cmax for an agent had not been determined, the highest concentration tested was 10 microM. […]
Note to self: viability, T/C under 3% means 1 (yes), ties and anything higher get 0 (no).

>  <compound>
NC1c2ccccc2OC12CCN(c1cnc3c(N4CCCc5ncccc54)n[nH]c3n1)CC2 (stereo not drawn) + CCn1c(-c2cc(N3CCN(C)CC3)cnc2C(C)OC)c2c3cc(ccc31)-c1csc(n1)CC(NC(=O)C1CC1C)C(=O)N1CCCC(N1)C(=O)OCC(C)(C)C2

>  <system-tested>
K86415-001-R-J1-PDC complex spheroids, viability

>  <class-assignment>
0 (no)

$$$$
>  <compound>
Nc1ccn(C2OC(CO)C(O)C2(F)F)c(=O)n1 (stereo not drawn) + CCn1c(-c2cc(N3CCN(C)CC3)cnc2C(C)OC)c2c3cc(ccc31)-c1csc(n1)CC(NC(=O)C1CC1C)C(=O)N1CCCC(N1)C(=O)OCC(C)(C)C2

>  <system-tested>
K86415-001-R-J1-PDC complex spheroids, viability

>  <class-assignment>
1 (yes)

$$$$

Consider the compound C=CC(=O)N1CCN(c2nc(OCC3CCCN3C)nc3c(F)c(-c4nc(N)cc(C)c4C(F)(F)F)c(Cl)cc23)C(C)C1 (stereo not drawn) + CCn1c(-c2cc(N3CCN(C)CC3)cnc2C(C)OC)c2c3cc(ccc31)-c1csc(n1)CC(NC(=O)C1CC1C)C(=O)N1CCCC(N1)C(=O)OCC(C)(C)C2 . Is its viability, T/C strictly less than 3%? 1 (yes)

Consider the compound C[C@@H](NC(=O)c1ncnc(N)c1Cl)c1ncc(C(=O)Nc2cc(C(F)(F)F)c(Cl)cn2)s1 + CCn1c(-c2cc(N3CCN(C)CC3)cnc2C(C)OC)c2c3cc(ccc31)-c1csc(n1)CC(NC(=O)C1CC1C)C(=O)N1CCCC(N1)C(=O)OCC(C)(C)C2 . Is its viability, T/C strictly less than 3%? 0 (no)

Consider the compound C=CC(=O)Nc1cc(Nc2nccc(-c3cn(C)c4ccccc34)n2)c(OC)cc1N(C)CCN(C)C + CCn1c(-c2cc(N3CCN(C)CC3)cnc2C(C)OC)c2c3cc(ccc31)-c1csc(n1)CC(NC(=O)C1CC1C)C(=O)N1CCCC(N1)C(=O)OCC(C)(C)C2 . Is its viability, T/C strictly less than 3%? 0 (no)

Consider the compound Cc1nc(N2CCC3(CC2)COC(C)C3N)c(CO)nc1Sc1ccnc(N)c1Cl (stereo not drawn) + CCn1c(-c2cc(N3CCN(C)CC3)cnc2C(C)OC)c2c3cc(ccc31)-c1csc(n1)CC(NC(=O)C1CC1C)C(=O)N1CCCC(N1)C(=O)OCC(C)(C)C2 . Is its viability, T/C strictly less than 3%? 0 (no)

Consider the compound CC(Nc1ccc2c(c1)OCCn1cc(N3C(=O)OCC3C(F)F)nc1-2)C(N)=O (stereo not drawn) + CCn1c(-c2cccnc2C(C)OC)c2c3cc(ccc31)N1CCOC(CC(NC(=O)C(C(C)C)N(C)C(=O)C3(F)CCN(C(=O)C#CC(C)(C)N(C)C)CC3)C(=O)N3CCCC(N3)C(=O)OCC(C)(C)C2)C1 . Is its viability, T/C strictly less than 3%? 0 (no)

Consider the compound CCC(CC)c1cc(NC2CCC(N)C2)n2nccc2n1 (stereo not drawn) + CCn1c(-c2cccnc2C(C)OC)c2c3cc(ccc31)N1CCOC(CC(NC(=O)C(C(C)C)N(C)C(=O)C3(F)CCN(C(=O)C#CC(C)(C)N(C)C)CC3)C(=O)N3CCCC(N3)C(=O)OCC(C)(C)C2)C1 . Is its viability, T/C strictly less than 3%? 0 (no)
